Can you tell me GI50 for the items I'm about to list?
tested on: M19-MEL; assay: NCI tumour cell line growth inhibition, 48 h
Activity calls are given as the source filed them. Rule as the data show it: active = GI50 up to about 1.1 µM and inactive = higher.

// solved cases for GI50 follow
| Compound | Property name | Value observed |
| --- | --- | --- |
| CC1(C)CC(=O)C(C(=O)Nc2cccs2)=C(O)C1 | GI50 | 41.2 µM (inactive) |
| CC(=O)OC1CC2C(C)(C)C(=O)C=C[C@]2(C)C2CCC3(C)C(c4ccoc4)[C@@H](O)[C@H]4O[C@]43[C@]12C (some centres undefined) | GI50 | 18.7 µM (inactive) |
| Cc1ccc(N2C(=O)C3CSCN3C2=O)cc1 (centres undefined) | GI50 | > 100 µM (inactive) |
| Cc1[nH]c2ccccc2c1C(=O)CC1(O)C(=O)Nc2ccccc21 (centres undefined) | GI50 | > 100 µM (inactive) |
| NC(=O)Cn1c(=O)[nH]c(=O)c2[nH]cnc21 | GI50 | > 100 µM (inactive) |

Batch request: GI50 per item, same order as input.
1. O=C(/C=C/c1ccco1)c1ccc(NCc2nc3ccccc3[nH]2)cc1
2. CCN(CC)CC[n+]1ccc2c(C)c3[nH]c4ccc(O)cc4c3c(C)c2c1
3. Nc1ncnc2c1ncn2C1CC(O)C(CO)O1 (centres undefined)
4. CC1CC2C(=O)NC(=O)C2c2[nH]c3ccccc3c21 (centres undefined)

Result:
["14.9 µM (inactive)", "1.21 µM (inactive)", "> 100 µM (inactive)", "> 100 µM (inactive)"]

----------
test system: SNB-75; experiment: NCI tumour cell line growth inhibition, 48 h
Activity calls are given as the source filed them. Rule as the data show it: active = GI50 up to about 1.1 µM and inactive = higher.
Property name: GI50

Consider the worked cases shown below.
| Compound | GI50 |
| --- | --- |
| CC(=O)O[C@H]1CCC2[C@@H]3CCC4Nc5[nH]ncc5C[C@]4(C)C3CC[C@@]21C (some centres not stated) | 54 µM (inactive) |
| CC1C2(C)OC(=N)C(C#N)(C(c3ccco3)O2)C1(C#N)C#N (configuration not stated) | 97.3 µM (inactive) |
| COS(C)(=O)=O | > 2 µM (inactive) |
| CCOC(=O)[C@H]1C[C@@H](C(=O)c2ccccc2)N2N=C(c3ccc(Br)cc3)C=C[C@H]12 | > 100 µM (inactive) |
| CCCc1cc(OC(=O)c2c(O)cc(OC)cc2CCC)cc(O)c1C(=O)O | 27.5 µM (inactive) |

Below are some compounds; for each one, tell me its GI50.
1. S=c1scc(-c2ccc(Cl)cc2)n1OC1CCCC1
2. CN1C(=O)C(=CN)C(=O)N(C)C1=O

Result:
1: 36.5 µM (inactive); 2: > 100 µM (inactive)

----------
tested on: SNB-78; test: NCI tumour cell line growth inhibition, 48 h
The source made the active and inactive calls. Cut-off read from the data, not from the text of the source: active = GI50 up to about 1.1 µM and inactive = higher.
Write down the outcome that applies. Available outcomes: yes for active, no for inactive

Q: Look up the recorded call for CN1C(=O)C(=CN)C(=O)N(C)C1=O in this test.
Result: no

Q: How was COc1ccc2cc3[n+](cc2c1OC)CCc1cc(O)c(O)cc1-3 classified in this test?
Result: no

Q: Please let me know the test result on file for CC1=C2C(O)C(C(C)C(=O)NC(C)C)CCC2(C)C=CC1=O (configuration not stated) .
Result: no

Q: Given COC(=O)C1=NC(=S)NC(c2ccccc2)C1c1nc2ccccc2s1 (configuration not stated) , state the outcome it received in this test.
Result: no

Q: Hello, I am checking results. What call was entered for CCCCNCC(=O)O[C@]1(CC)C(=O)OCc2c1cc1n(c2=O)Cc2cc3ccccc3nc2-1 ?
Result: no

Q: Could you kindly confirm the outcome this assay logged for CC(C)N(C(=O)C12C3C4C5C3C1(C(=O)N(C(C)C)C(C)C)C5C42)C(C)C (configuration not stated) ?
Result: no

----------
tested on: SF-268; experiment: NCI tumour cell line growth inhibition, 48 h
Activity calls are given as the source filed them. Cut-off read from the data, not from the text of the source: active = GI50 up to about 1.1 µM and inactive = higher.
Property name: GI50

| Molecule | GI50 |
| --- | --- |
| O=C1CCCC/C1=C(\Br)I | 9.62 µM (inactive) |
| O=C1NCC2=C1CCC1c3ccccc3CCN21 (stereo not drawn) | > 100 µM (inactive) |
| COc1cc(/C=C2\CC3C4CC[C@H]5C[C@@H](O)CC[C@]5(C)C4CC[C@]3(C)C2=O)cc(OC)c1OC (stereo partly drawn) | 24 µM (inactive) |

Please report GI50 for every entry that follows.
1. CC(=O)/C=C1\CC(=O)Nc2ccccc2N1
2. COc1ccc(/C=C2\CCC(Cc3ccccc3)(CN(C)C)C2=O)cc1 (stereo not drawn)
3. COc1ccc(/C(Cl)=C(\C=O)c2ccc(F)cc2)cc1OC
4. COC(=O)CC1(O)C=CC(=O)C=C1 [JACARANONE]
5. CCCCc1ccc(NC(=N)N)cc1
6. CNC(=O)NCCCCC(NC(C)=O)C(=O)NCc1ccccc1 (stereo not drawn)
7. Clc1ccc(CSc2ncnc3c2ncn3C2CCCCO2)cc1 (stereo not drawn)

Result:
1. > 100 µM (inactive)
2. 69.5 µM (inactive)
3. 13.5 µM (inactive)
4. 3.18 µM (inactive)
5. 40.2 µM (inactive)
6. > 100 µM (inactive)
7. 23.3 µM (inactive)

# per-item lookup of GI50; items listed below
1. CC(=O)OC1CC2C(C)(C)C(=O)C=C[C@]2(C)C2CCC3(C)C(c4ccoc4)[C@@H](O)[C@H]4O[C@]43[C@]12C (stereo partly drawn)
2. CCCCCCCCCCCCCCNCC(OCC)OCC
3. COc1ccc(C(C#N)NNC(=O)c2ccccc2O)cc1OC (stereo not drawn)
4. NC(Cc1ccccc1)C(=O)OCN1C(=O)C2C3C=CC(C2C1=O)C1C(=O)N(COC(=O)C(N)Cc2ccccc2)C(=O)C31 (stereo not drawn)
5. CCN1CCC(O)(C(C(=O)O)c2ccccc2)CC1 (stereo not drawn)

Result:
1: 24.5 µM (inactive); 2: 17.3 µM (inactive); 3: 0.468 µM (active); 4: > 100 µM (inactive); 5: > 100 µM (inactive)

Could I get GI50 for every one of these entries?
1. COc1ccc(NC(=O)CC(=O)N2N=C(N3c4ccccc4Sc4ccccc43)CC2c2ccccc2)cc1 (stereo not drawn)
2. CC(C)=CC1CC(C)C2(CCC3(C)CC4C(C(=O)CC4(C)O)/C(C=O)=C\CC32)O1 (stereo not drawn)
3. CCc1cccc(C(C)C)c1NC(=O)C(=O)C(C(=O)C(=O)OC)c1nc2ccccc2nc1O (stereo not drawn)

Result:
23.4 µM (inactive)
0.136 µM (active)
> 100 µM (inactive)

Batch request: GI50 per item, same order as input.
1. CC(=O)O/N=C1\C=Cc2c(no[n+]2[O-])C1=O
2. COC(=O)c1cccc(C)c1C1CN=NC12Cc1c(ccc(C)c1C)C2=O (stereo not drawn)
3. CC(=O)Nc1ccc(-c2cc(C(=O)O)c3cc4ccccc4cc3n2)cc1
4. O=C1CC(NC(=O)C(F)(F)F)c2c1csc2Br (stereo not drawn)
5. COc1ccc2c(c1)CCC1C3(CCCC21C)OCCO3 (stereo not drawn)

Result:
20.8 µM (inactive)
61.8 µM (inactive)
> 100 µM (inactive)
0.678 µM (active)
6.9 µM (inactive)

----------
Kindly state GI50 for each of the entries shown.
system: MDA-MB-435; experiment: NCI tumour cell line growth inhibition, 48 h
Active and inactive are the calls of the source. Rule as the data show it: active = GI50 up to about 1.1 µM and inactive = higher.

Known results for compounds:
| Compound | Property name | Value observed |
| --- | --- | --- |
| C[n+]1c(-c2ccc(/C=N\N3CCN(/N=C/c4ccc(-c5cn6ccsc6[n+]5C)cc4)CC3)cc2)cn2ccsc21 | GI50 | 26.7 µM (inactive) |
| CC(=O)O[C@H]1C[C@H]2[C@@H]([C@H](OC(C)=O)C[C@@H]3CC4(CC[C@@]32C)OOC2(CCCCC2)OO4)[C@@H]2CC[C@H]([C@H](C)CCC(=O)O)[C@@]12C | GI50 | 5.75 µM (inactive) |

Consider the following items and state reported GI50 for each.
1. CC1(C)C2CCC1(CC(=O)O)C(Cl)C2 (stereo not drawn)
2. Nc1c(C(=O)O)nnc2cc(Cl)c(Cl)cc12
3. [N-]=[N+]=CC(=O)OC1CCc2ccccc21 (stereo not drawn)
4. COc1cc2c(c3oc4c(O)cccc4c(=O)c13)CC(C(C)(O)CCl)O2 (stereo not drawn)
5. CCCCCCCCCCCCCCCCCCN(C)C(COC)COP(=O)([O-])OCC[N+](C)(C)C (stereo not drawn)
6. O=C1/C(=C/c2cccnc2)SC(=S)N1Cc1ccco1

Result:
1. > 100 µM (inactive)
2. > 100 µM (inactive)
3. > 100 µM (inactive)
4. 0.13 µM (active)
5. 15.6 µM (inactive)
6. 2.15 µM (inactive)

----------
tested on: M14; assay: NCI tumour cell line growth inhibition, 48 h
The source made the active and inactive calls. No stated cut-off is given here; in the data, active = GI50 up to about 1.1 µM and inactive = higher.
Provide the reported GI50 of each item.

Below, 8 compounds whose answers are already recorded.
| Compound | GI50 |
| --- | --- |
| CC(=O)CC(=O)OC1CC(C)CCC1C(C)C (stereo unspecified) | > 100 µM (inactive) |
| COC(=O)/C(=C/c1ccc(OC)cc1)C(C(=O)O)=C1CCCC1 | > 100 µM (inactive) |
| COC1=CC(=O)[C@H]2[C@H](C)C(c3ccccc3)[C@@]2(C)C1=O (stereo partly specified) | > 100 µM (inactive) |
| CCOC(=O)/C(C#N)=C1\c2c([nH]c(=S)[nH]c2=O)Oc2ccc3ccccc3c21 | 43.8 µM (inactive) |
| Nc1ncnc2c1ncn2C1CC(O)C(CO)O1 (stereo unspecified) | > 100 µM (inactive) |
| CNC(=O)NCCCCC(NC(C)=O)C(=O)NCc1ccccc1 (stereo unspecified) | > 100 µM (inactive) |
| CC[C@@H]1OC2(C)CC(S(=O)(=O)c3ccccc3O)CC1O2 (stereo partly specified) | > 100 µM (inactive) |
| O=C(O)C(Cc1ccccc1)N1C(=O)c2ccccc2C1=O (stereo unspecified) | > 100 µM (inactive) |

# batch size: 3; output GI50 per entry
1. CCCC[C@H]1CCN2C[C@@H](O)[C@@H](O)[C@H]2[C@@H]1O
2. CC(=O)Oc1c2c(c3n(c1=O)CCCC3)C(=O)N(c1ccccc1)C2=O
3. CC(C)=CCC/C(C)=C\CC/C(C)=C/CO

Result:
1: > 100 µM (inactive); 2: > 100 µM (inactive); 3: 16.5 µM (inactive)
